Just for reference, ChEMBL document CHEMBL4610063 is where these values come from.

test: Cytotoxicity against African green monkey Vero cells assessed as reduction in cell viability incubated for 72 hrs by MTT assay; assay type: cell-based; conditions: chlorocebus sabaeus
outcomeMeasure: CC50 at 72 h

Q. Using the record for "O=c1c2cc(O)c(O)cc2oc2cc(O)c([C@@H]3O[C@H](CO)[C@@H](O)[C@H](O)[C@H]3O)c(O)c12" , state its measured CC50 at 72 h.
A. > 500 µg/mL

---

experiment: Selectivity index, ratio of CC50 for African green monkey Vero cells to IC50 for Herpes simplex virus 1 AR-29 infected in African green monkey Vero cells; assay type: toxicity; details: read-out: Ratio CC50/IC50
outcomeMeasure: selectivity ratio

Q. Using the record for "O=c1c2cc(O)c(O)cc2oc2cc(O)c([C@@H]3O[C@H](CO)[C@@H](O)[C@H](O)[C@H]3O)c(O)c12" , state its measured selectivity ratio.
A. > 172
